Kindly supply the reported viability, T/C values for the records listed here.
- System: 186277-243-T-J2-PDC spheroids with HUVEC/MSC, viability
- Protocol Details: Anticancer human tumor 186277-243-T-J2-PDC patient-derived colon adenocarcinoma cell line growth inhibition [CLK]
- Condition Parameters: second compound 0.1 µM; first compound 0.1 µM; stronger effect = lower value
Answers are plain numbers, in %.

CC(=O)O[C@H]1C(=O)[C@@]2(C)[C@H]([C@H](OC(=O)c3ccccc3)[C@]3(O)C[C@H](OC(=O)[C@H](O)[C@@H](NC(=O)c4ccccc4)c4ccccc4)C(C)=C1C3(C)C)[C@]1(OC(C)=O)CO[C@@H]1C[C@@H]2O + CN1CCN(c2cc(C(=O)Nc3cc4cc(-c5cnn(C)c5)ccc4cn3)ccn2)CC1 = 14.6

For every listed record, write down its viability, T/C.
1. CCN1CCN(Cc2ccc(Nc3ncc(F)c(-c4cc(F)c5nc(C)n(C(C)C)c5c4)n3)nc2)CC1 + CNC(=O)c1ccc(Nc2nc(OC3CCCC3)c3c(-c4ccc5nc(C)oc5c4)c[nH]c3n2)c(OC)c1
2. COC1C=CCC(C)C(C)S(=O)(=O)NC(=O)c2ccc3c(c2)N(CC2CCC21)CC1(CCCc2cc(Cl)ccc21)CO3 (centres undefined) + CN1CCN(c2cc(C(=O)Nc3cc4cc(-c5cnn(C)c5)ccc4cn3)ccn2)CC1
3. C#Cc1c(F)ccc2cc(O)cc(-c3ncc4c(N5CC6CCC(C5)N6)nc(OCC56CCCN5CC(F)C6)nc4c3F)c12 (centres undefined) + CN1CCN(c2cc(C(=O)Nc3cc4cc(-c5cnn(C)c5)ccc4cn3)ccn2)CC1
4. CC1(C)CCC(CN2CCN(c3ccc(C(=O)NS(=O)(=O)c4ccc(NCC5CCOCC5)c([N+](=O)[O-])c4)c(Oc4cnc5[nH]ccc5c4)c3)CC2)=C(c2ccc(Cl)cc2)C1 + CNC(=O)c1ccc(Nc2nc(OC3CCCC3)c3c(-c4ccc5nc(C)oc5c4)c[nH]c3n2)c(OC)c1
5. COc1c(OCCCN2CCOCC2)ccc2c3n(c(=NC(=O)c4cnc(N)nc4)nc12)CCN3 + CN1CCN(c2cc(C(=O)Nc3cc4cc(-c5cnn(C)c5)ccc4cn3)ccn2)CC1
6. CCc1c2c(nc3ccc(O)cc13)-c1cc3c(c(=O)n1C2)COC(=O)[C@]3(O)CC + CNC(=O)c1ccc(Nc2nc(OC3CCCC3)c3c(-c4ccc5nc(C)oc5c4)c[nH]c3n2)c(OC)c1

Return:
1: 103; 2: 91.2; 3: 75.3; 4: 82; 5: 7.94; 6: 19.2

For every listed record, write down its viability, T/C.
1. CC1COCCN1c1cc(C2(S(C)(=N)=O)CC2)nc(-c2ccnc3[nH]ccc23)n1 (centres undefined) + CNC(=O)c1ccc(Nc2nc(OC3CCCC3)c3c(-c4ccc5nc(C)oc5c4)c[nH]c3n2)c(OC)c1
2. COc1cccc2c1C(=O)c1c(O)c3c(c(O)c1C2=O)CC(O)(C(=O)CO)CC3OC1CC(N)C(O)C(C)O1 (centres undefined) + CNC(=O)c1ccc(Nc2nc(OC3CCCC3)c3c(-c4ccc5nc(C)oc5c4)c[nH]c3n2)c(OC)c1

Return:
[77.5, 64.4]

* * *

- Tested on: 186277-243-T-J2-PDC spheroids with HUVEC/MSC, viability
- Protocol Details: Anticancer human tumor 186277-243-T-J2-PDC cell line growth inhibition [CLK];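 note: compound exposure lasted seven days before readout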;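 for viability, T/C: 100% = DMSO vehicle control wells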
- Condition Parameters: second compound 0.1 µM; first compound 0.316 µM; stronger effect = lower value
- Source text: A high-throughput screen of multi-cell type tumor spheroids was designed to identify active combinations of […] and targeted small molecules. Complex spheroids include a stromal component modeled by human endothelial cells (HUVEC) and fibroblasts modeled by human mesenchymal stem cells (MSCs). […] Compounds. […] If the clinical Cmax for an agent had not been determined, the highest concentration tested was 10 microM. […]
Kindly supply the reported viability, T/C values for the records listed here.
Answers are plain numbers, in %.

# annotated cases, reported viability, T/C shown
C#Cc1c(F)ccc2cc(O)cc(-c3ncc4c(N5CC6CCC(C5)N6)nc(OCC56CCCN5CC(F)C6)nc4c3F)c12 (stereo unspecified) + CN1CCN(c2cc(C(=O)Nc3cc4cc(-c5cnn(C)c5)ccc4cn3)ccn2)CC1 = 29.7
CCCS(=O)(=O)Nc1ccc(F)c(C(=O)c2c[nH]c3ncc(-c4ccc(Cl)cc4)cc23)c1F + CNC(=O)c1ccc(Nc2nc(OC3CCCC3)c3c(-c4ccc5nc(C)oc5c4)c[nH]c3n2)c(OC)c1 = 73.7
CCCS(=O)(=O)Nc1ccc(F)c(C(=O)c2c[nH]c3ncc(-c4ccc(Cl)cc4)cc23)c1F + CN1CCN(c2cc(C(=O)Nc3cc4cc(-c5cnn(C)c5)ccc4cn3)ccn2)CC1 = 86.7
CC1COCCN1c1cc(C2(S(C)(=N)=O)CC2)nc(-c2ccnc3[nH]ccc23)n1 (stereo unspecified) + CNC(=O)c1ccc(Nc2nc(OC3CCCC3)c3c(-c4ccc5nc(C)oc5c4)c[nH]c3n2)c(OC)c1 = 78.7
CC(Nc1ccc2c(c1)OCCn1cc(N3C(=O)OCC3C(F)F)nc1-2)C(N)=O (stereo unspecified) + CN1CCN(c2cc(C(=O)Nc3cc4cc(-c5cnn(C)c5)ccc4cn3)ccn2)CC1 = 42.3
CCc1c2c(nc3ccc(O)cc13)-c1cc3c(c(=O)n1C2)COC(=O)[C@]3(O)CC + CNC(=O)c1ccc(Nc2nc(OC3CCCC3)c3c(-c4ccc5nc(C)oc5c4)c[nH]c3n2)c(OC)c1 = 16.6
O=c1[nH]cc(F)c(=O)[nH]1 + CN1CCN(c2cc(C(=O)Nc3cc4cc(-c5cnn(C)c5)ccc4cn3)ccn2)CC1 = 87
Nc1ccn(C2OC(CO)C(O)C2(F)F)c(=O)n1 (stereo unspecified) + CNC(=O)c1ccc(Nc2nc(OC3CCCC3)c3c(-c4ccc5nc(C)oc5c4)c[nH]c3n2)c(OC)c1 = 13.3
CC(=O)O[C@H]1C(=O)[C@@]2(C)[C@H]([C@H](OC(=O)c3ccccc3)[C@]3(O)C[C@H](OC(=O)[C@H](O)[C@@H](NC(=O)c4ccccc4)c4ccccc4)C(C)=C1C3(C)C)[C@]1(OC(C)=O)CO[C@@H]1C[C@@H]2O + CNC(=O)c1ccc(Nc2nc(OC3CCCC3)c3c(-c4ccc5nc(C)oc5c4)c[nH]c3n2)c(OC)c1 = 128
Nc1ccccc1NC(=O)c1ccc(CNC(=O)OCc2cccnc2)cc1 + CN1CCN(c2cc(C(=O)Nc3cc4cc(-c5cnn(C)c5)ccc4cn3)ccn2)CC1 = 77.3

Enquiry: Please give the measured viability, T/C for this molecule: CC1(C)CCC(CN2CCN(c3ccc(C(=O)NS(=O)(=O)c4ccc(NCC5CCOCC5)c([N+](=O)[O-])c4)c(Oc4cnc5[nH]ccc5c4)c3)CC2)=C(c2ccc(Cl)cc2)C1 + CN1CCN(c2cc(C(=O)Nc3cc4cc(-c5cnn(C)c5)ccc4cn3)ccn2)CC1
Return: 87.6

* * *

Kindly supply the reported pIC50 values for the records listed here.
- Test system: 186277-243-T-J2-PDC spheroids with HUVEC/MSC, viability
- Protocol Details: Anticancer human tumor 186277-243-T-J2-PDC cell line growth inhibition [CLK];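 note: compound exposure lasted seven days before readout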
- Condition Parameters: curve of first compound; second compound 0.0316 µM
- Excerpt: A high-throughput screen of multi-cell type tumor spheroids was designed to identify active combinations of […] and targeted small molecules. Complex spheroids include a stromal component modeled by human endothelial cells (HUVEC) and fibroblasts modeled by human mesenchymal stem cells (MSCs). […] Compounds. […] If the clinical Cmax for an agent had not been determined, the highest concentration tested was 10 microM. […]
Give bare numbers, as −log10 of the molar value.

CC(Nc1ccc2c(c1)OCCn1cc(N3C(=O)OCC3C(F)F)nc1-2)C(N)=O (stereo not drawn) + CNC(=O)c1ccc(Nc2nc(OC3CCCC3)c3c(-c4ccc5nc(C)oc5c4)c[nH]c3n2)c(OC)c1 = 5.75

Enquiry: Please give the measured pIC50 for this compound: CCc1c2c(nc3ccc(O)cc13)-c1cc3c(c(=O)n1C2)COC(=O)[C@]3(O)CC + CNC(=O)c1ccc(Nc2nc(OC3CCCC3)c3c(-c4ccc5nc(C)oc5c4)c[nH]c3n2)c(OC)c1
Return: 7.61

* * *

- Test system: 186277-243-T-J2-PDC spheroids with HUVEC/MSC, viability
- Protocol Details: Anticancer human tumor 186277-243-T-J2-PDC cell line growth inhibition [CLK];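 note: compound exposure lasted seven days before readout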;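 for viability, T/C: 100% = DMSO vehicle control wells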
- Condition Parameters: second compound 0.1 µM; first compound 0.0316 µM; stronger effect = lower value
- Excerpt: A high-throughput screen of multi-cell type tumor spheroids was designed to identify active combinations of […] and targeted small molecules. Complex spheroids include a stromal component modeled by human endothelial cells (HUVEC) and fibroblasts modeled by human mesenchymal stem cells (MSCs). […] Compounds. […] If the clinical Cmax for an agent had not been determined, the highest concentration tested was 10 microM. […]
Binary label based on viability, T/C with cut-off 70%: below gives Condition met, not below gives Condition not met.

COc1cccc2c1C(=O)c1c(O)c3c(c(O)c1C2=O)CC(O)(C(=O)CO)CC3OC1CC(N)C(O)C(C)O1 (stereo not given) + CNC(=O)c1ccc(Nc2nc(OC3CCCC3)c3c(-c4ccc5nc(C)oc5c4)c[nH]c3n2)c(OC)c1 = Condition not met
C#Cc1c(F)ccc2cc(O)cc(-c3ncc4c(N5CC6CCC(C5)N6)nc(OCC56CCCN5CC(F)C6)nc4c3F)c12 (stereo not given) + CN1CCN(c2cc(C(=O)Nc3cc4cc(-c5cnn(C)c5)ccc4cn3)ccn2)CC1 = Condition not met
O=c1[nH]cc(F)c(=O)[nH]1 + CN1CCN(c2cc(C(=O)Nc3cc4cc(-c5cnn(C)c5)ccc4cn3)ccn2)CC1 = Condition not met

Please turn your attention to the following entry.
Enquiry: Below 70% on viability, T/C? Entry CCc1c2c(nc3ccc(O)cc13)-c1cc3c(c(=O)n1C2)COC(=O)[C@]3(O)CC + CNC(=O)c1ccc(Nc2nc(OC3CCCC3)c3c(-c4ccc5nc(C)oc5c4)c[nH]c3n2)c(OC)c1
Return: Condition met
